assay-metric: melting point

Look over these answered cases.
> print(dat)
                         structure.notation   assay.metric         result
1      COc1cccc(/C=C2/C(=O)Nc3cc(F)ccc32)c1  melting point  169 to 170 °C
2  COc1ccc2c(c1)NC(=O)/C2=C/c1cccc(C(F)(F)F)c1  melting point  157 to 160 °C
3     COc1cccc(/C=C2/C(=O)Nc3ccc(Cl)cc32)c1  melting point  212 to 214 °C
4  O=C1Nc2cc(Cl)ccc2/C1=C\c1cccc(C(F)(F)F)c1  melting point  204 to 207 °C
5    COc1ccc(/C=C2/C(=O)Nc3cc(Cl)ccc32)cc1O  melting point  220 to 223 °C
6  O=C1Nc2cc(F)ccc2/C1=C\c1cccc(C(F)(F)F)c1  melting point  132 to 135 °C
7     COc1cccc(/C=C2/C(=O)Nc3cc(OC)ccc32)c1  melting point  161 to 163 °C
8     COc1cccc(/C=C2/C(=O)Nc3cc(Cl)ccc32)c1  melting point  198 to 200 °C

Form: compound = "COc1ccc(/C=C2/C(=O)Nc3cc(F)ccc32)cc1O" ; melting point = 225 to 227 °C

Per the records, this compound ( "COc1ccc2c(c1)NC(=O)/C2=C/c1ccc(OC)c(O)c1" ) has melting point equal to 184 to 186 °C
